For each entry below, report its Expression value.
# System: HEK293 cells
# Assay type: cell-based, human
# measurement setup: luminescence from secreted Gluc in supernatant 24 hours after transfection of HEK293 cells; circular RNA encoding Gluc with the named IRES (UTR truncated to 675 nt)
Lab note: record the figure alone, no unit after it.

stdin: Give the measured Expression of Human pegivirus isolate JD2B1I (nucleic acid, listed as Pegivirus sp.) DNA: TCAGGGTTGGTAGGTCGTAAATCCCGGTCACCTTGGTAGCCACTATAGGTGGGTCTTAAGAGAAGGTTAAGATTCCTCTTGTGCCTGCGGCGAGACCGCGCACGGTCCACAGGTGTTGGCCCTACCGGTGGGAATAAGGGCCCGACGTCAGGCTCGTCGTTAAACCGAGCCCGTCACCCACCTGGGCAAACGACGCCCACGTACGGTCCACGTCGCCCTTCA .
stdout: 6.85E+05

stdin: Give the measured Expression of Linda virus (nucleic acid) DNA: GTATAGCAGCAGTAGCTCAAGGCTGCTATACGATTGGACATACCAAATTCCAATTGGTGTTAGGGACCACCTAGGTGAAGGCCGACGACAGGTAGCCATTCCTGTTAGTAGGACGAACCGTTATGGTGGACTGGTTGCTCAGGTGAGCAGGCTGCAATGCGTAAGTGGTGAGTACACCACAGCCGTCAAAGGTGCCACTGGTAAGGATCACCCACTGGCGATGCCTTGTGGACGGGGGCGTGCCCAACGCAATGTTAGCGGTGGCGGGGGCTGCCATCGTGAAAGCTAGGTCTTGATGGACCTTGTTGCCTGTACAGTCTGATAGGATGCCGGCGGATGCCCTGTGACAGCCAGTATAAAGAATATCCGTTGTGATTGCAC .
stdout: 7.37E+05
